Tested on: MS2 coat protein
experimental_protocol: apparent KD of MS2 coat protein; higher = weaker reporter binding
condition_notes: Eterna round: R107; input ligand: theophylline 20 uM
measurement_label: apparent KD of MS2 coat protein (nM)
Provide only the numeric value, understood in nM.

// query Fill in the blank: the reported apparent KD of MS2 coat protein of UACAUGAGGAUCACCCAUGUAUACAUGGAUACCAGCGACAAUGGGCGCCCUUGGCAGCUAGUGGAUGGAGGGUGGCCACAGUACU [Exclusion Theophyline A GF5] is ____.
// result 53.1

// query Fill in the blank: the reported apparent KD of MS2 coat protein of CACGGCCAUGAGGAUCACCCAUGGAAUAAUCGAGGACCGGUACGGCCGCCACUCGUGGACCGUGACCUGUACGAAAAGUGCAGGA is ____.
// result 31.7

// query Fill in the blank: the reported apparent KD of MS2 coat protein of GCCGCGGCCGCGAUACACAUGGGUGUGUAACGAGGACCGGUACGGCCGCCACUCGAGAUGGCACAUGAGGAUCACCCAUGUGUGC [Exclusion Tryp A GF16] is ____.
// result 60.2

// query Fill in the blank: the reported apparent KD of MS2 coat protein of UGUUUUUAUCGAAGGAGCGCCGCAUGAGGAUCACCCAUGCACAUGAGGAUCACCCAUGUCUGGCAGGUAGGUCGCGAUCAAUGGG [Same State Arginine B GF 11] is ____.
// result 48.7

// query Fill in the blank: the reported apparent KD of MS2 coat protein of UACAUGAGGAUCACCCAUGUAUAACCGGUACGAGGACCGGUACGGCCGCCACUCGAAACAUGAGGAUCACCCAUGUGCUACUAUU [Same State Trypophan A GF 22] is ____.
// result 36.4

// query Fill in the blank: the reported apparent KD of MS2 coat protein of AGACAUGAGGAUCACCCAUGUAGUAUGGAUACCAGAUCCAGAUUUAUCCCUUGGCAGCUGUGGUACAGCGAUGGAUUGCUCCUAG [Exclusion - Theophylline A (Freestyle 10)] is ____.
// result 48.5

// query Fill in the blank: the reported apparent KD of MS2 coat protein of UUCAUGAGGAUUGAUACCAGCCACCAACAUGAGGAACUUACAUGAGGAUCACCCAUGUGAGGCCCUUGGCAGCAAGCAUACAUGA [Exclusion Theophylline B 3] is ____.
// result 16.7

// query Fill in the blank: the reported apparent KD of MS2 coat protein of UGCGACAAGUGAAUACUUUGUUCUAGAGAUACCAGUUCCCGAGUGAACCCUUGGCAGCUCCCAACAUGAGGAUCACCCAUGUAUU [theeternabot_exclusion_MS2_Theo_A_24] is ____.
// result 20

// query Fill in the blank: the reported apparent KD of MS2 coat protein of AUGCUUAUCAGAAGGAGCGUCAUUAACAUGAGGAUCACCCAUGUAACAUUGAAUUCGAUGAGACAGGUAGGUCGCUGAAUAGUAA [SS-ArgB27] is ____.
// result 51.5

// query Fill in the blank: the reported apparent KD of MS2 coat protein of UUUUAGCAUCGAAGGAGCGCUGGUGAAACUGACUAUGGAACAUGAGGAUCACCCAUGUGCUAGCAGGUAGGUCGCGAUGCUAUUU [SSAB NP+V+V2 #10] is ____.
// result 20.7

// query Fill in the blank: the reported apparent KD of MS2 coat protein of AAGACCAGGAGGUGAUCCUAACUGGUCCAACGAGGACCGGUACGGCCGCCACUCGAAUAAACAUGAGGAUCACCCAUGUAAUAAU [T''-M-T'-T-MS2] is ____.
// result 101

// query Fill in the blank: the reported apparent KD of MS2 coat protein of AUGUCGUUGAAUAUAGCGGCUUGGAGUGAUACCAGAAUGAUCUAAUUCCCUUGGCAGCAUUACAUGAGGAUCACCCAUGUUCCAG [SSTheo A #22] is ____.
// result 57.4
